methodNotes: Miglustat toxicokinetics
Assay type: in vivo, cynomolgus monkey
conditionParameters: cynomolgus monkey, plasma, po, 175 mg/kg, Day 85; 175 mg/kg miglustat monotherapy
readoutType: Tmax (h)

| substanceSmiles | readoutType | unitTag | measurement |
| --- | --- | --- | --- |
| CCCCN1C[C@H](O)[C@@H](O)[C@H](O)[C@H]1CO | Tmax | h | 4.13 |

###

methodNotes: in vivo
conditionParameters: both, Cambodian origin, cynomolgus monkey, in vivo

| substanceSmiles | NOAEL at 13 weeks (mg/kg) |
| --- | --- |
| CCCCN1C[C@H](O)[C@@H](O)[C@H](O)[C@H]1CO | 175 |
